Cited source for all entries: paper PMC10051454

- experiment: Fe3+ reducing ability (ferricyanide method, absorbance 700 nm)
- experimental_context: 30 µg/mL; absorbance at 700 nm
Rule: Fe^3+ Reducing λ700 under 0.3 absorbance gives not met, otherwise met.

Q: Record Cc1cc(C(C)(C)C)c(O)c(C(C)(C)C)c1 [BHT, butylated hydroxytoluene, reference compound] ; criterion: Fe^3+ Reducing λ700 no lower than 0.3 absorbance. Met?
Ans: met

Q: What about this molecule? "COc1ccc(C=O)cc1O"
Ans: not met

Q: What about this molecule? "COc1ccc(/C=N/Nc2ccccc2)cc1O"
Ans: met

Q: Could you do the same for "COc1ccc(/C=N/c2ccc(N)cc2)cc1O" , please?
Ans: met

Q: Now this one: "COc1ccc(/C=N/c2ccc(Br)cc2)cc1O"
Ans: not met

Q: And the next one, Cc1c(C)c2c(c(C)c1O)CC[C@@](C)(CCC[C@H](C)CCC[C@H](C)CCCC(C)C)O2 [α-Tocopherol, α-tocopherol, reference compound] ?
Ans: met

Q: "COc1ccc(/C=N/c2ccc(N(C)C)cc2)cc1O" , same question.
Ans: met

Q: Moving on to "COc1ccc(/C=N/N=C(c2ccccc2)c2ccccc2)cc1O"
Ans: met

====

Can you tell me IC50 for the items I'm about to list?
- target_or_system: hCA II (Homo sapiens, UniProt P00918)
- experiment: hCA II inhibition, esterase assay (Verpoorte)
- Assay type: biochemical
- experimental_context: read-out: IC50 hCA II
Answer in nM, number only, no unit symbol.

Q: Can you look up the measured IC50 of "COc1ccc(/C=N/Nc2ccccc2)cc1O" for me?
Ans: 116

Q: Query "COc1ccc(/C=N/c2ccccc2O)cc1O" next
Ans: 88.2

Q: One more compound: "COc1ccc(/C=N/Cc2ccccc2)cc1O"
Ans: 139

Q: // same read-out, input: "COc1ccc(/C=N/c2ccc(N(C)C)cc2)cc1O"
Ans: 131

Q: Entry to check: "COc1ccc(/C=N/c2ccc(F)cc2)cc1O"
Ans: 99

Q: Now the same for "COc1ccc(/C=N/N=C(c2ccccc2)c2ccccc2)cc1O"
Ans: 112

Q: Next record, please: "COc1ccc(/C=N/c2ccc(Br)cc2)cc1O"
Ans: 77

Q: What do you get for "COc1ccc(/C=N/c2ccc(N)cc2)cc1O" ?
Ans: 69.3

====

- target_or_system: AChE (Homo sapiens, UniProt P22303)
- Sequence (P22303 32-614): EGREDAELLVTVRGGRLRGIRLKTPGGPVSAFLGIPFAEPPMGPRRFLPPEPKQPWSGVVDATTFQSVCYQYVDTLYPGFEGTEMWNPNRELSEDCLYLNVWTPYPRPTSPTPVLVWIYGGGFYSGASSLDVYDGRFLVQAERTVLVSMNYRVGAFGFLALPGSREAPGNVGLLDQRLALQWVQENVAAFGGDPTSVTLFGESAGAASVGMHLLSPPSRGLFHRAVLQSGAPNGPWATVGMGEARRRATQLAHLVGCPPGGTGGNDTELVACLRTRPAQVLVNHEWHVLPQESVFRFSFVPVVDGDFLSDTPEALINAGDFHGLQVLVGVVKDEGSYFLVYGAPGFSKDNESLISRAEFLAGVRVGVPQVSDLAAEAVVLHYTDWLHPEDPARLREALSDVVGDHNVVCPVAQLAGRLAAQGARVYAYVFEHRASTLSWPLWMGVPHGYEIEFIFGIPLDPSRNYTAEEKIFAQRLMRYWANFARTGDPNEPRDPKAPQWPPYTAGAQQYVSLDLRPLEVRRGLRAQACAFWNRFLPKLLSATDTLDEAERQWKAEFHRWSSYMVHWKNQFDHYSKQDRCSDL
- experiment: biochemical
- experimental_context: read-out: IC50 AChE
Field: pIC50. Provide a value for each of the molecules that follow.
In simple prose, pIC50 is minus the logarithm base ten of a concentration in moles per litre.

Q: Query pIC50 on AChE (Homo sapiens, UniProt P22303) for "COc1ccc(/C=N/c2ccc(N(C)C)cc2)cc1O"
Ans: 7.57

Q: Now this one: "COc1ccc(/C=N/c2ccc(F)cc2)cc1O"
Ans: 7.64

Q: How about this molecule: "COc1ccc(/C=N/c2ccccc2O)cc1O"
Ans: 7.65

Q: Next molecule up: "COc1ccc(/C=N/Nc2ccccc2)cc1O"
Ans: 7.62

Q: "COc1ccc(/C=N/N=C(c2ccccc2)c2ccccc2)cc1O" ?
Ans: 7.79

Q: Entry to check: "COc1ccc(/C=N/Cc2ccccc2)cc1O"
Ans: 7.59

Q: Same for "COc1ccc(/C=N/c2ccc(Br)cc2)cc1O"
Ans: 7.75

Q: // repeat for "COc1ccc(/C=N/c2ccc(N)cc2)cc1O" and report
Ans: 7.46
